Test system: Plasmodium berghei
Experiment summary: Screen against P. berghei liver stage (PbLuc), transformed with Luciferase, at 10uM
Format: functional, HepG2
Particulars: tested at 10 uM
Among all 69,000 compounds or so, about 8,600 (12%) showed an effect of 50% or more. The list comes from a sample in which strong results are over-represented; it also holds close analogues and randomly drawn compounds.
compounds and their reported INHIBITION
Write the value in % as a bare number.

Answered examples (3):
COC(=O)C(c1cc(F)ccc1F)N(C)C(=O)c1cnccn1 (stereo unspecified) | 48.4
N[C@@H]1c2ccccc2C2(CCN(C(=O)c3ccc(=O)[nH]c3)CC2)[C@H]1O | 4.795
Cc1nc(NC(=O)C2(C)CN(C)CCO2)sc1C (stereo unspecified) | 4.3

## Task Return INHIBITION for the following compound: `CCOc1ccc(CN[C@@H]2COC[C@H]2c2ccc(F)cc2)cc1`
## Result -16

## Task // Input: `CCn1ncc(CN2CCC(O)(Cn3ccc4ncccc43)CC2)c1C` . Output its INHIBITION only.
## Result 19.6

## Task Annotate the compound `OC1(Cn2ccc3ncccc32)CCN(Cc2cc(F)cc(F)c2)CC1` with its measured INHIBITION.
## Result 54.4

## Task State, in one line, measured INHIBITION of CC(C)(C)c1ccc(OCC(=O)O)c(CN2C[C@H]3CC(O)C[C@H]3C2)c1 (stereo partly specified)
## Result 40.55

## Task Kindly indicate its recorded INHIBITION. Item: `OC1(Cn2ccc3ccncc32)CCN(Cc2ccccn2)CC1`
## Result 37

## Task Using known records, supply INHIBITION for c1ncn(CC2CCCN(CC3CCCCC3)C2)n1 (stereo unspecified)
## Result -1.75

## Task Please report the measured INHIBITION for OC(COCc1cccs1)Cn1cc(Br)cn1 (stereo unspecified)
## Result -28.4

## Task Item OC(COCc1ccccc1)CSc1nnc2ccccn12 (stereo unspecified) : provide INHIBITION
## Result 42.6

## Task Provide measured INHIBITION value, entry: `Cc1cccc(CN2CCS(=O)(=O)[C@@H]3CCN(S(C)(=O)=O)CC[C@@H]32)n1`
## Result 39.3

## Task Answer with the recorded INHIBITION for the compound listed here: OC(COCc1ccco1)CSc1nnc2ccccn12 (stereo unspecified)
## Result 14.8

## Task Give recorded INHIBITION. `Cc1nc(N2CCCC2)nc2c1CN(C(=O)NC(C)C)CC2`
## Result -9.74

## Task Note INHIBITION for the compound shown: `O=C(NC1CC1)c1cccc(S(=O)(=O)NCCc2nc(C3CC3)no2)c1`
## Result -86.5

## Task Indicate the recorded INHIBITION value for this compound: `COCCN1C(=O)[C@]2(CC[C@@H]3CN(C(=O)NC4CCCC4)C[C@@H]32)N=C1C`
## Result 20.2

----------
Test system: Plasmodium berghei
Experiment summary: Screen against P. berghei liver stage (PbLuc), transformed with Luciferase, at 10uM
Assay type: functional, HepG2
Particulars: tested at 10 uM
In all, about 69,000 compounds went through this assay and about 8,600 (12%) showed an effect of 50% or more. The sample holds strong results, similar compounds and a random draw of the others, so the mix is not that of the screen.
Item-by-item account of INHIBITION

CN1CCN([C@H]2CCN(C(=O)c3nn(C)cc3Cl)C[C@H]2CCCO)CC1 | 8.7%

## Task State its INHIBITION for this compound: `O=C([C@H]1CN(Cc2ccoc2)C[C@H]2OCC[C@@H]12)N1CCCCO1`
## Result 39.4%

## Task Quick one: give measured INHIBITION for CCc1noc(C2CCCCN2C(=O)c2cc(C)n(C)n2)n1 (configuration not stated)
## Result 52.4%

## Task Recall and state the measured INHIBITION for `Cc1ccc2c(n1)N(CCn1cccn1)CCN(S(C)(=O)=O)C2` .
## Result -73.5%

----------
System: Plasmodium berghei
Experiment summary: Screen against P. berghei liver stage (PbLuc), transformed with Luciferase, at 10uM
Type: functional, HepG2
Particulars: tested at 10 uM
The campaign covered roughly 69,000 compounds. About 8,600 (12%) showed an effect of 50% or more. The sample holds strong results, similar compounds and a random draw of the others, so the mix is not that of the screen.
Grouping by measured INHIBITION is done with the following cut points: range 1 (below 10%), range 2 (10% to below 40%), range 3 (40% or more)

Reference set (8 entries):
CCC(CO)N(Cc1ccsc1)Cc1cccc(O)c1 (configuration not stated) | range 1
CCC(CO)N(CC=C(C)C)Cc1ccsc1 (configuration not stated) | range 3
Cn1cnc(S(=O)(=O)N2CCCC2c2cnccn2)c1 (configuration not stated) | range 2
O=C(c1ccc(-c2cccc3c2CCNC3)o1)N1CCCC1 | range 1
CC(C)NCc1cccnc1N1CCN(c2ccccn2)CC1 | range 2
CC(C)CC(C)NCc1cccnc1N1CCN(c2ccccn2)CC1 (configuration not stated) | range 1
CN(CC(=O)Nc1ccncc1)C1CCCN(c2cccnn2)C1 (configuration not stated) | range 1
Cc1cccc(CN2C(=O)CO[C@@H]3CN(C4CCOCC4)C[C@H]32)c1 | range 1

## Task For `CN(C)C(=O)CN1C(=O)CO[C@@H]2CN(c3ccccn3)C[C@H]21` , which INHIBITION bin applies?
## Result range 2

## Task Dear colleague, I would appreciate it if you could identify the bin for CCCC(C)NCc1cccnc1N1CCN(c2ccccn2)CC1 (configuration not stated) and reply at your convenience.
## Result range 3

## Task Entry `CN1CCC(NC(=O)[C@H]2CC[C@@H]3[C@@H](CCN3c3ncccn3)O2)CC1` belongs to which category?
## Result range 2

----------
System: Plasmodium berghei
Experiment summary: Screen against P. berghei liver stage (PbLuc), transformed with Luciferase, at 10uM
Assay type: functional, HepG2
Particulars: tested at 10 uM
The campaign covered roughly 69,000 compounds. About 8,600 (12%) showed an effect of 50% or more. The full list was thinned out, with strong results kept by preference.
Binarize INHIBITION at 40%; below is yes (1), at or above is no (0).

Answered examples (8):
Cc1cc(C)cc(NC(=O)Nc2c(O)c3ccccc3oc2=O)c1 | no (0)
O=C(N[C@@H]1CN(Cc2cccc(F)c2)C[C@H]1O)c1cscn1 | no (0)
CCn1nc(C)c2c1cnn2CCNS(=O)(=O)c1cccs1 | no (0)
Cc1cnn(CC2CCCN2c2ncnc3c2CCC3)c1 (stereo not drawn) | yes (1)
CC(CN1CCOCC1)NC(=O)Nc1cccnc1-n1cccn1 (stereo not drawn) | yes (1)
N#CC1(NC(=O)c2ccc(F)cc2OC(F)F)CCOCC1 | yes (1)
CCc1noc(C)c1C(=O)NCC(c1ccc(C)cc1)N(C)C (stereo not drawn) | yes (1)
CN1CCCN(C(=O)NCCNc2ncccn2)CC1 | yes (1)

# evaluate next
## Task Answer whether the molecule CCc1ccc(C(CNC(=O)c2c(C)noc2C)N(C)C)cc1 (stereo not drawn) has INHIBITION strictly less than 40%
## Result no (0)

----------
This listing pairs molecules with measured INHIBITION.
Test system: Plasmodium berghei
Experiment summary: Screen against P. berghei liver stage (PbLuc), transformed with Luciferase, at 10uM
Type: functional, HepG2
Particulars: tested at 10 uM
The campaign covered roughly 69,000 compounds. About 8,600 (12%) showed an effect of 50% or more. Shown is part of a subset that was picked to be rich in strong results.
Write the number in % without appending the unit.

Solved entries:
CCc1n[nH]c(C2CN(CCc3ccncc3)CCO2)n1 (configuration not stated) | 23.6
c1ccc(-n2cc(CN3CCCC3Cn3cccn3)nn2)cc1 (configuration not stated) | -18
Cc1c(F)cccc1S(=O)(=O)N(C)CC(C)O (configuration not stated) | -37.6

## Task Give the reported INHIBITION for this molecule. Cc1noc(C(C)C)c1C(=O)NCC(c1ccccc1)N(C)C (configuration not stated)
## Result -7.35

## Task Give the reported INHIBITION for this molecule. CC(O)CN(C)S(=O)(=O)c1ccc(C#N)cc1F (configuration not stated)
## Result 64.6

## Task Provide one value: measured INHIBITION of Cc1ccc(S(=O)(=O)N(C)CC(C)O)c(F)c1 (configuration not stated)
## Result 6.99

## Task Give reported INHIBITION value for CCc1nc2n(n1)CC(NCc1nc(-c3ccccn3)no1)CC2 (configuration not stated)
## Result 4.45

## Task Please report INHIBITION for the following molecule: CC(C)(C)c1n[nH]c(C2CN(CCc3cccs3)CCO2)n1 (configuration not stated)
## Result 37.3

## Task Return value of INHIBITION for input CC(C)(C)c1n[nH]c(C2CN(CCc3ccncc3)CCO2)n1 (configuration not stated) , no commentary.
## Result 57.5

## Task For the molecule `COc1ccc(CN(C)C2CSCCSC2)c2cccnc12` , report INHIBITION.
## Result 57.4

## Task Name the recorded INHIBITION of the item O=C(c1ccoc1)N1CCOC2(COCCN(CC3CC3)C2)C1 (configuration not stated) in your answer.
## Result 71.3

## Task Read the entry `CCN(CC)C(=O)CN(C)CCn1nc2ccccn2c1=O` and write its reported INHIBITION.
## Result -79.8
